Cited source: patent US20220073604A1

- system name: T1, bacterially produced cynomolgus monkey IL-6 (cynomolgus monkey, UniProt P79341 28-212, limits assumed)
- T1 construct: also called bact-cy IL-6; HIS-cyIL-6
- measurement protocol: off-rate of Fab 111A7 variant on bact-cy IL-6 (binding kinetics, SPR presumed; n = 1)
// koff lookup, one value per entry
Just so you know, I need the unit written after the number.

Here is how some binders turned out for koff.
Fab 111A7 with the CDR3 methionine changed to N (Fab, V domains shown) VH: EVQLLESGGGLVQPGGSLRLSCAASGFTFSSYAMSWVRQAPGKGPEWVSRISAGGGSTYYGDSVKGRFTISRDNSKNTLYLQMNSLRAEDTAVYYCANRAGWGNGDYWGQGTLVTVSS VL: QTVVTQEPSFSVSPGGTVTLTCGLSSGSVTASNYPGWYQQTPGQAPRALIYSTNDRHSGVPDRFSGSISGNKAALTITGAQAEDEADYYCALDIGDITEFGGGTQLTVL | 0.000207 s⁻¹
Fab 111A7 with the CDR3 methionine changed to F (Fab, V domains shown) VH: EVQLLESGGGLVQPGGSLRLSCAASGFTFSSYAMSWVRQAPGKGPEWVSRISAGGGSTYYGDSVKGRFTISRDNSKNTLYLQMNSLRAEDTAVYYCANRAGWGFGDYWGQGTLVTVSS VL: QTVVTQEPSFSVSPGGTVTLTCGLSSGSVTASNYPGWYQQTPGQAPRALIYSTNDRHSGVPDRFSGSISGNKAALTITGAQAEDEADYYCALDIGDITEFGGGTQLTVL | 0.000203 s⁻¹
Fab 111A7 with the CDR3 methionine changed to W (Fab, V domains shown) VH: EVQLLESGGGLVQPGGSLRLSCAASGFTFSSYAMSWVRQAPGKGPEWVSRISAGGGSTYYGDSVKGRFTISRDNSKNTLYLQMNSLRAEDTAVYYCANRAGWGWGDYWGQGTLVTVSS VL: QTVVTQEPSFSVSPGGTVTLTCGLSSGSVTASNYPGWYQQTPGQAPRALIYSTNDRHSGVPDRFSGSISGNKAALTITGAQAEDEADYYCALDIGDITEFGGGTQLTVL | 0.000177 s⁻¹
Fab 111A7 with the CDR3 methionine changed to K (Fab, V domains shown) VH: EVQLLESGGGLVQPGGSLRLSCAASGFTFSSYAMSWVRQAPGKGPEWVSRISAGGGSTYYGDSVKGRFTISRDNSKNTLYLQMNSLRAEDTAVYYCANRAGWGKGDYWGQGTLVTVSS VL: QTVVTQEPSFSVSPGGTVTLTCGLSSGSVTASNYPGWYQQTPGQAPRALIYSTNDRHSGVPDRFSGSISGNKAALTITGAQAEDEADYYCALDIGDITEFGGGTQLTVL | 0.00417 s⁻¹
Fab 111A7 with the CDR3 methionine changed to C (Fab, V domains shown) VH: EVQLLESGGGLVQPGGSLRLSCAASGFTFSSYAMSWVRQAPGKGPEWVSRISAGGGSTYYGDSVKGRFTISRDNSKNTLYLQMNSLRAEDTAVYYCANRAGWGCGDYWGQGTLVTVSS VL: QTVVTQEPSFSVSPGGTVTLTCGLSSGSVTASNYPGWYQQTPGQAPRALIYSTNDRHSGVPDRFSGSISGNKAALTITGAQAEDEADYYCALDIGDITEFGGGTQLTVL | 9.46e-05 s⁻¹

Request the reported koff associated with Fab 111A7M_L (CMC optimized variant of Fab 111A7, CDR3 methionine to leucine) (Fab, V domains shown, Fab; The VL is that of 111A7; also called M98X: L) VH: EVQLLESGGGLVQPGGSLRLSCAASGFTFSSYAMSWVRQAPGKGPEWVSRISAGGGSTYYGDSVKGRFTISRDNSKNTLYLQMNSLRAEDTAVYYCANRAGWGLGDYWGQGTLVTVSS VL: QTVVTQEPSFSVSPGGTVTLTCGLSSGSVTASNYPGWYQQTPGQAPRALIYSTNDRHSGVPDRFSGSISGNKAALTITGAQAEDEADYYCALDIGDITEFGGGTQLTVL
0.000184 s⁻¹

Request the reported koff associated with Fab 111A7 with the CDR3 methionine changed to R (Fab, V domains shown) VH: EVQLLESGGGLVQPGGSLRLSCAASGFTFSSYAMSWVRQAPGKGPEWVSRISAGGGSTYYGDSVKGRFTISRDNSKNTLYLQMNSLRAEDTAVYYCANRAGWGRGDYWGQGTLVTVSS VL: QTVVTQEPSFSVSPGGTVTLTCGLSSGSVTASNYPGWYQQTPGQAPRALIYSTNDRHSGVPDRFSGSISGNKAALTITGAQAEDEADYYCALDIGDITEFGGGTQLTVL
0.000121 s⁻¹
